Biological target: CLK4 (Homo sapiens, UniProt Q9HAZ1)
Sequence (Q9HAZ1 whole entry): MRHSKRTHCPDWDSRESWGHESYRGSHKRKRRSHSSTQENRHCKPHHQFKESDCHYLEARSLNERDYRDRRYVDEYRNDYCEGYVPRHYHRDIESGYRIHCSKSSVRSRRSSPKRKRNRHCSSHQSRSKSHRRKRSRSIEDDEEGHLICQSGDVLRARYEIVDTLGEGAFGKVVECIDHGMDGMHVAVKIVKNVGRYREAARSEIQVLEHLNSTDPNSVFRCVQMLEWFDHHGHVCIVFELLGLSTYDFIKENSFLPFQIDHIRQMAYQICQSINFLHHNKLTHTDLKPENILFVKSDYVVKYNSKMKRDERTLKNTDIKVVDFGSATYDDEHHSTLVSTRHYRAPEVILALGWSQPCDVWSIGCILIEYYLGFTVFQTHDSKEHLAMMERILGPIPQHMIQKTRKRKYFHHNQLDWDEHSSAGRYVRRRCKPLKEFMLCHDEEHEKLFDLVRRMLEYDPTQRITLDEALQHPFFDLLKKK
Readout Name: pIC50
In textbook form, pIC50 equals minus log to base ten of the concentration in mol/L.

## Input # returns recorded pIC50 (system: CLK4 (Homo sapiens, UniProt Q9HAZ1)) for Nc1ncnc2c1c(I)cn2[C@@H]1O[C@H](CO)[C@@H](O)[C@H]1O
## Output 7.85

---

Biological target: CLK1 (Homo sapiens)
Sequence (P49759 whole entry): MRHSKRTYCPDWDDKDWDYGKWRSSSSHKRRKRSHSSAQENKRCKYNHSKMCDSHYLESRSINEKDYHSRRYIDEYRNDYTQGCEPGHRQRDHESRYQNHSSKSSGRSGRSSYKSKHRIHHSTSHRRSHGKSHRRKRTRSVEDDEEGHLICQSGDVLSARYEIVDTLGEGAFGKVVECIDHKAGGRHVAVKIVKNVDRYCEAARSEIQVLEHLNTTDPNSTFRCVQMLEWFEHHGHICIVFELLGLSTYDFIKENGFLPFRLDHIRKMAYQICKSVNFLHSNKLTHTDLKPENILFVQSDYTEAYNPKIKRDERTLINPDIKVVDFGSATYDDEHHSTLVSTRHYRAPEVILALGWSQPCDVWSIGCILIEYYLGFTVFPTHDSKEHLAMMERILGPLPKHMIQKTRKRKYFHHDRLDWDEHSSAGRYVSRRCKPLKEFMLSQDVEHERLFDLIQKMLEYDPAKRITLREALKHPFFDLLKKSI
Readout Name: IC50 (µM)
Write the answer as a number in µM, unit excluded.

## Input # returns recorded IC50 (system: CLK1 (Homo sapiens)) for Nc1ncnc2c1c(I)cn2[C@@H]1O[C@H](CO)[C@@H](O)[C@H]1O
## Output 0.036

---

Target: UniProt:Q9NR20
Sequence (Q9NR20 whole entry): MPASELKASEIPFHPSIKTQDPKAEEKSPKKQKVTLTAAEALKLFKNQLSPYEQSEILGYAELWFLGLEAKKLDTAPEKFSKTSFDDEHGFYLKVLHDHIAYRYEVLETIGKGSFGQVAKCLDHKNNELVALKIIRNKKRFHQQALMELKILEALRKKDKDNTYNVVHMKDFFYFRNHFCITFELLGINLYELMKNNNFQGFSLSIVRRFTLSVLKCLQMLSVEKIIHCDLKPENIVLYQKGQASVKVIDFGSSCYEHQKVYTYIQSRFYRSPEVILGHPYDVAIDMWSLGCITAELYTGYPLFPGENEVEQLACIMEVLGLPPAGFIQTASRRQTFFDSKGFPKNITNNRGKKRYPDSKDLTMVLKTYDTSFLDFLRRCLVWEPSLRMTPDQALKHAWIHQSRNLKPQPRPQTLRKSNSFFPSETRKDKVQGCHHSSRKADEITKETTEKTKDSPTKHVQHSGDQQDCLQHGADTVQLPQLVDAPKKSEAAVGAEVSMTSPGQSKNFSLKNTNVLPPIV
Readout Name: IC50
// return the numeric value with its unit appended

## Input # returns recorded IC50 (system: UniProt:Q9NR20) for Nc1ncnc2c1c(I)cn2[C@@H]1O[C@H](CO)[C@@H](O)[C@H]1O [5-IT, 5-iodotubercidin]
## Output 129 nM

---

Molecular target: CLK2 (Homo sapiens, UniProt P49760)
Sequence (P49760 whole entry): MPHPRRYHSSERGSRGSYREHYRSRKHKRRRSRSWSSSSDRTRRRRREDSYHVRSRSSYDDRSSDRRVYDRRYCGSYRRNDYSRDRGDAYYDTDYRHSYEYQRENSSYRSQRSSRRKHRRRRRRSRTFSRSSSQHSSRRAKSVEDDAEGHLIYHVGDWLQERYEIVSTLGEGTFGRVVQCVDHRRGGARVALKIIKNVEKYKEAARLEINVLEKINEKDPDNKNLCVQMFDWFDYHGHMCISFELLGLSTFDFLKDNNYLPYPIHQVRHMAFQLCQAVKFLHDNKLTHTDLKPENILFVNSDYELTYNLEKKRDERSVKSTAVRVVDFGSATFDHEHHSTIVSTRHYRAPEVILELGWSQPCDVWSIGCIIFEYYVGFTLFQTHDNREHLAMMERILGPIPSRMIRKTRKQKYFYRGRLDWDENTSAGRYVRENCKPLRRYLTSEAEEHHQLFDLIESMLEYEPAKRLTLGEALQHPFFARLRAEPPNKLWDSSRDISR
Readout Name: pIC50
In textbook form, pIC50 equals minus log to base ten of the concentration in mol/L.

## Input # returns recorded pIC50 (system: CLK2 (Homo sapiens, UniProt P49760)) for Nc1ncnc2c1c(I)cn2[C@@H]1O[C@H](CO)[C@@H](O)[C@H]1O
## Output 8.00

---

Target: CLK3 (Homo sapiens)
Sequence (P49761 whole entry): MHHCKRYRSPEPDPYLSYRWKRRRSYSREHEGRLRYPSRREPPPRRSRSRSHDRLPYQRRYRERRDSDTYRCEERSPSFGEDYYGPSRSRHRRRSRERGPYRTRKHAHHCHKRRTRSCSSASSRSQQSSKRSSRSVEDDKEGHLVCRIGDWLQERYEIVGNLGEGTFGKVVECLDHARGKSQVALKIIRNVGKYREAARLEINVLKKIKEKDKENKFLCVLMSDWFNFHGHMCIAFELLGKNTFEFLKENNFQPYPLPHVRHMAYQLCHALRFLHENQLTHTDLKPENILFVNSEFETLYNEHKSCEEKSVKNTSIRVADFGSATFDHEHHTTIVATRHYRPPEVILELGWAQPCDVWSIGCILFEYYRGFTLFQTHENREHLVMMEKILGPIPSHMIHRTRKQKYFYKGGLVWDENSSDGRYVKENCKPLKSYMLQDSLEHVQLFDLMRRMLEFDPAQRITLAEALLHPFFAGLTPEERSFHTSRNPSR
Readout Name: pIC50
In textbook form, pIC50 equals minus log to base ten of the concentration in mol/L.

## Input # returns recorded pIC50 (system: CLK3 (Homo sapiens)) for Nc1ncnc2c1c(I)cn2[C@@H]1O[C@H](CO)[C@@H](O)[C@H]1O [5-IT, 5-iodotubercidin]
## Output 6.71

---

Target: DYRK1B (Homo sapiens)
Sequence (Q9Y463 whole entry): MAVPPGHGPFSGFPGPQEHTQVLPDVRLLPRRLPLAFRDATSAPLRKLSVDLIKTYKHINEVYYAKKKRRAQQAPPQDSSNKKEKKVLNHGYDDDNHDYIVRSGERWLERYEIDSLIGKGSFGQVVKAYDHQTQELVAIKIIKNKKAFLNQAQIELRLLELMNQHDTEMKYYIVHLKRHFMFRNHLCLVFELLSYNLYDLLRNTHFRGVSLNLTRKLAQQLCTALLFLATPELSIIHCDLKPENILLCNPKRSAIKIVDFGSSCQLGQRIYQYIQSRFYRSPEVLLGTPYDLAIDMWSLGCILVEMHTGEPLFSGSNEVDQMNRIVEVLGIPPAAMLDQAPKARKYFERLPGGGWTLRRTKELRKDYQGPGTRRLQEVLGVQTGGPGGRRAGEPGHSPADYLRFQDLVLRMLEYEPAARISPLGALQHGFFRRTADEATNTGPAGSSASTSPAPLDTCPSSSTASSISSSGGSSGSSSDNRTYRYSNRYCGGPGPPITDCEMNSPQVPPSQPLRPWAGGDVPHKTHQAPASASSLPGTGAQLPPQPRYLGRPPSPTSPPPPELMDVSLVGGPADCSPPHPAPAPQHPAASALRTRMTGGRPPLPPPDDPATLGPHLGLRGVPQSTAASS
Assay: Human kinome profiling, DYRK1B
Assay type: biochemical
Details: read-out: IC50 DYRK1B; ATP within 15 μmol/L of apparent KM
Readout Name: IC50

## Input # returns recorded IC50 (system: DYRK1B (Homo sapiens)) for Nc1ncnc2c1c(I)cn2[C@@H]1O[C@H](CO)[C@@H](O)[C@H]1O [5-IT, 5-iodotubercidin]
## Output 10 nM

---

Molecular target: DYRK2 (Homo sapiens, UniProt Q92630)
Sequence (Q92630 whole entry): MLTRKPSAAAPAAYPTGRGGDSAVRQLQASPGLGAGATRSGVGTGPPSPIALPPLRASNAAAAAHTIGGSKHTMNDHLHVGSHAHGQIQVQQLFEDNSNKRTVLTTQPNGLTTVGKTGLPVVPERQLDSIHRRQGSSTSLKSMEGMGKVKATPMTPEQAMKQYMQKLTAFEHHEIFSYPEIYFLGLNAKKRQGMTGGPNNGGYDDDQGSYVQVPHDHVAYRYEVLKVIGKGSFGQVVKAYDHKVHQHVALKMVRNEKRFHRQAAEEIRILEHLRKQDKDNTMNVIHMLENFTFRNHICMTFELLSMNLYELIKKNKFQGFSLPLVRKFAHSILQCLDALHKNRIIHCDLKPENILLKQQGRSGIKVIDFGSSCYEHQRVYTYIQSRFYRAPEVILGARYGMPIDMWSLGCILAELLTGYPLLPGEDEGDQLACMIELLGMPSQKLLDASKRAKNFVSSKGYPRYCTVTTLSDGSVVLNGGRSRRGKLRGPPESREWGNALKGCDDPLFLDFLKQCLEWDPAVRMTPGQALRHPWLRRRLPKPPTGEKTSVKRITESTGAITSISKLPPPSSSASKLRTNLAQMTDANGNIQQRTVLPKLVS
Readout Name: pIC50
In textbook form, pIC50 equals minus log to base ten of the concentration in mol/L.

## Input # returns recorded pIC50 (system: DYRK2 (Homo sapiens, UniProt Q92630)) for Nc1ncnc2c1c(I)cn2[C@@H]1O[C@H](CO)[C@@H](O)[C@H]1O
## Output 8.22
